- System: PFPK5(P.falciparum)
- Construct: gene MAL13P1.279
- condition: Compound Concentration (nM):1000;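 further: KINOMEscan scanMAX binding as percent activity remaining versus control; lower means stronger binding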

| compound | assay.target | Percent Control, % |
| --- | --- | --- |
| CCS(=O)(=O)c1ccc(OC)c(Nc2ncc(-c3cccc(OC)c3)o2)c1 [GW580509X] | PFPK5(P.falciparum) | 100 |
| Cl.O=C(Nc1ccc(Oc2ccc3[nH]c(NC(=O)c4ccccc4)nc3c2)cc1)Nc1cc(C(F)(F)F)ccc1F [GW709042A] | PFPK5(P.falciparum) | 100 |
| Nc1ncnc2occ(-c3ccc(NC(=O)Nc4cc(C(F)(F)F)ccc4F)cc3)c12 [GW770249X] | PFPK5(P.falciparum) | 100 |
| CCn1c(-c2nonc2N)nc2c(C#CC(C)(C)O)nc(OCCNC)cc21.Cl [GSK949675] | PFPK5(P.falciparum) | 100 |
| CN1CCN(C(=O)c2ccc(NC(=O)Nc3ccc(N(C)c4ccnc(Nc5ccc(CS(C)(=O)=O)cc5)n4)cc3)cc2)CC1.Cl [GW830263A] | PFPK5(P.falciparum) | 95 |
| NS(=O)(=O)c1ccc(N/N=C2\C(=O)Nc3ccc(C(=O)NCCc4c[nH]cn4)cc32)cc1 [GW300660X] | PFPK5(P.falciparum) | 78 |
| CC1=C(C(=O)Nc2ccc3[nH]ncc3c2)C(c2ccc3ccccc3c2)CC(=O)N1 (centres unmarked) [GSK270822A] | PFPK5(P.falciparum) | 70 |
| O=C(Nc1n[nH]c2nc(-c3ccc(O)cc3)c(Br)cc12)C1CC1 [SB-725317] | PFPK5(P.falciparum) | 100 |

---

- System: p38-alpha
- Construct: gene MAPK14
- condition: Compound Concentration (nM):1000
attribute.measured: Percent Control (%)

| compound | attribute.measured | reported |
| --- | --- | --- |
| Cl.c1ccc(Cc2nc3ccc(Nc4ncnc5ccccc45)cc3[nH]2)cc1 [GR269666A] | Percent Control | 100 |
| COc1ccccc1-c1cc(/C=C2\C(=O)Nc3ncc(Br)cc32)cc(Br)c1O [GW442130X] | Percent Control | 100 |
| CC1=C(C(=O)Nc2ccc3[nH]ncc3c2)C(c2ccc(Cl)c(Cl)c2)CC(=O)N1 (stereo not shown) [GSK299115A] | Percent Control | 100 |
| CN(C)CCNC(=O)Nc1ccc(N(C)c2ccnc(Nc3ccc(CS(C)(=O)=O)cc3)n2)cc1.Cl [GW830900A] | Percent Control | 99 |

---

- Tested on: ERN1
- condition: Compound Concentration (nM):1000
Label MET when Percent Control < 70%; otherwise NOT MET.

| compound | assay.target | class.assignment |
| --- | --- | --- |
| COc1cc2ncnc(Nc3ccc4c(cnn4Cc4ccccc4)c3)c2cc1OC.Cl [GW282449A] | ERN1 | NOT MET |
| NS(=O)(=O)c1ccc(N/N=C2\C(=O)Nc3ccc(-c4cnco4)cc32)cc1 | ERN1 | NOT MET |
| NS(=O)(=O)c1ccc(N/N=C2\C(=O)Nc3ccc(C(=O)NCc4ccncc4)cc32)cc1 [GW300657X] | ERN1 | MET |
| COC(=O)Nc1nc2ccc(Oc3ccc(NC(=O)Nc4cc(C(F)(F)F)ccc4F)cc3)cc2s1.Cl [GW693917A] | ERN1 | MET |
| O=C1Nc2ccc(C(=O)c3ccco3)cc2C1=Cc1cc(Cl)c(O)c(Cl)c1 [GW406108X] | ERN1 | MET |
